- System: Staphylococcus aureus
- method: Antibacterial activity against Staphylococcus aureus Smith by standard serial agar dilution method
- Format: functional
Here the recorded MIC is given for each entry.
Give the number; µg/mL is assumed, so skip it.

| compound | MIC (µg/mL) |
| --- | --- |
| CC(C)(O/N=C(\C(=O)N[C@@H]1C(=O)N2C(C(=O)[O-])=C(C[n+]3ccccc3)CS[C@H]12)c1csc(N)n1)C(=O)O [CEFTAZIDIME] | 8 |

Tell us which MIC value is on record for C[C@H](O/N=C(\C(=O)N[C@@H]1C(=O)N2C(C(=O)[O-])=C(C[n+]3cccc4c3ccn4CC(=O)O)CS[C@H]12)c1nc(N)sc1Cl)C(=O)O
8

Tell us which MIC value is on record for C[C@H](O/N=C(\C(=O)N[C@@H]1C(=O)N2C(C(=O)[O-])=C(C[n+]3cccc4c3ccn4CCNS(N)(=O)=O)CS[C@H]12)c1nc(N)sc1Cl)C(=O)O
2

----------
- Tested on: Staphylococcus aureus
- method: Antibacterial activity against Staphylococcus aureus Smith by standard serial agar dilution method
- Assay type: functional
Here the recorded MIC is given for each entry.
Please state the number and follow it with the unit.

Example molecules with recorded MIC:
| structureAsSmiles | assayValue |
| --- | --- |
| CO/N=C(\C(=O)N[C@@H]1C(=O)N2C(C(=O)[O-])=C(C[N+]3(C)CCCC3)CS[C@H]12)c1csc(N)n1 | 2 µg/mL |
| CNCCn1ncc2c1ccc[n+]2CC1=C(C(=O)[O-])N2C(=O)[C@@H](NC(=O)/C(=N\O[C@@H](C)C(=O)O)c3nc(N)sc3Cl)[C@H]2SC1 | 4 µg/mL |
| C[C@H](O/N=C(\C(=O)N[C@@H]1C(=O)N2C(C(=O)[O-])=C(C[n+]3cccc4c3ccn4C)CS[C@H]12)c1nc(N)sc1Cl)C(=O)O | 1 µg/mL |

Tell us which MIC value is on record for CNCCn1ccc2c1ccc[n+]2CC1=C(C(=O)[O-])N2C(=O)[C@@H](NC(=O)/C(=N\O[C@@H](C)C(=O)O)c3nc(N)sc3Cl)[C@H]2SC1
2 µg/mL

Tell us which MIC value is on record for COC(=O)NCCn1ccc2c1ccc[n+]2CC1=C(C(=O)[O-])N2C(=O)[C@@H](NC(=O)/C(=N\O[C@@H](C)C(=O)O)c3nc(N)sc3Cl)[C@H]2SC1
4 µg/mL

Tell us which MIC value is on record for C[C@H](O/N=C(\C(=O)N[C@@H]1C(=O)N2C(C(=O)[O-])=C(C[n+]3cccc4c3ccn4CCO)CS[C@H]12)c1nc(N)sc1Cl)C(=O)O
2 µg/mL

----------
- System: Enterobacter cloacae
- method: Antibacterial activity against AmpC producing Enterobacter cloacae SR-4321 by standard serial agar dilution method
- Assay type: functional
Here the recorded MIC is given for each entry.
Give the number; µg/mL is assumed, so skip it.

Example molecules with recorded MIC:
| structureAsSmiles | MIC [µg/mL] |
| --- | --- |
| C[C@H](O/N=C(\C(=O)N[C@@H]1C(=O)N2C(C(=O)[O-])=C(C[n+]3cccc4c3ccn4CC(=O)O)CS[C@H]12)c1nc(N)sc1Cl)C(=O)O | 16 |
| C[C@H](O/N=C(\C(=O)N[C@@H]1C(=O)N2C(C(=O)[O-])=C(C[n+]3cccc4c3ccn4CCNS(N)(=O)=O)CS[C@H]12)c1nc(N)sc1Cl)C(=O)O | 4 |
| C[C@H](O/N=C(\C(=O)N[C@@H]1C(=O)N2C(C(=O)[O-])=C(C[n+]3ccc(NC4CNC4)cc3)CS[C@H]12)c1nc(N)sc1Cl)C(=O)O | 4 |
| C[C@H](O/N=C(\C(=O)N[C@@H]1C(=O)N2C(C(=O)[O-])=C(C[n+]3cccc4[nH]ccc43)CS[C@H]12)c1nc(N)sc1Cl)C(=O)O | 2 |
| C[C@H](O/N=C(\C(=O)N[C@@H]1C(=O)N2C(C(=O)[O-])=C(C[n+]3cccc4c3ccn4CCOC(N)=O)CS[C@H]12)c1nc(N)sc1Cl)C(=O)O | 2 |

Tell us which MIC value is on record for C[C@H](O/N=C(\C(=O)N[C@@H]1C(=O)N2C(C(=O)[O-])=C(C[n+]3cccc4c3ccn4C)CS[C@H]12)c1nc(N)sc1Cl)C(=O)O
1

----------
- Test system: Pseudomonas aeruginosa
- method: Antibacterial activity against imipenem-resistant Pseudomonas aeruginosa SR-6554 by standard serial agar dilution method
- Type: functional
Here the recorded MIC is given for each entry.
Give the number; µg/mL is assumed, so skip it.

| structureAsSmiles | quantityUnit | MIC |
| --- | --- | --- |
| CNCCCc1cc[n+](CC2=C(C(=O)[O-])N3C(=O)[C@@H](NC(=O)/C(=N\O[C@@H](C)C(=O)O)c4nc(N)sc4Cl)[C@H]3SC2)cc1 | µg/mL | 16 |

Answer briefly: MIC recorded on Pseudomonas aeruginosa for CNCCNc1cc[n+](CC2=C(C(=O)[O-])N3C(=O)[C@@H](NC(=O)/C(=N\O[C@@H](C)C(=O)O)c4nc(N)sc4Cl)[C@H]3SC2)cc1
16

Answer briefly: MIC recorded on Pseudomonas aeruginosa for C[C@H](O/N=C(\C(=O)N[C@@H]1C(=O)N2C(C(=O)[O-])=C(C[n+]3cccc4c3ccn4CCO)CS[C@H]12)c1nc(N)sc1Cl)C(=O)O
16

----------
- Test system: Pseudomonas aeruginosa
- method: Antibacterial activity against imipenem-resistant Pseudomonas aeruginosa SR-6554 by standard serial agar dilution method
- Assay type: functional
Here the recorded MIC is given for each entry.
Give the number; µg/mL is assumed, so skip it.

| structureAsSmiles | MIC, µg/mL |
| --- | --- |
| C[C@H](O/N=C(\C(=O)N[C@@H]1C(=O)N2C(C(=O)[O-])=C(C[n+]3cccc4c3ccn4CCOC(N)=O)CS[C@H]12)c1nc(N)sc1Cl)C(=O)O | 8 |
| CNCCn1nnc2c1ccc[n+]2CC1=C(C(=O)[O-])N2C(=O)[C@@H](NC(=O)/C(=N\O[C@@H](C)C(=O)O)c3nc(N)sc3Cl)[C@H]2SC1 | 64 |

Tell us which MIC value is on record for C[C@H](O/N=C(\C(=O)N[C@@H]1C(=O)N2C(C(=O)[O-])=C(C[n+]3cccc4c3nc(N)n4CCNCCO)CS[C@H]12)c1nc(N)sc1Cl)C(=O)O
16

----------
- System: Enterobacter cloacae
- method: Antibacterial activity against Enterobacter cloacae ATCC 13047 by standard serial agar dilution method
- Assay type: functional
Here the recorded MIC is given for each entry.
Give the number; µg/mL is assumed, so skip it.

| molecule | MIC (µg/mL) |
| --- | --- |
| C[C@H](O/N=C(\C(=O)N[C@@H]1C(=O)N2C(C(=O)[O-])=C(C[n+]3cccc4c3ccn4CC(N)=O)CS[C@H]12)c1nc(N)sc1Cl)C(=O)O | 0.5 |

Tell us which MIC value is on record for C[C@H](O/N=C(\C(=O)N[C@@H]1C(=O)N2C(C(=O)[O-])=C(C[n+]3cccc4c3nc(N)n4C3CCNCC3)CS[C@H]12)c1nc(N)sc1Cl)C(=O)O
0.25

Tell us which MIC value is on record for CC(C)(O/N=C(\C(=O)N[C@@H]1C(=O)N2C(C(=O)[O-])=C(C[n+]3ccccc3)CS[C@H]12)c1csc(N)n1)C(=O)O [CEFTAZIDIME]
8

Tell us which MIC value is on record for CNCCn1c(N)nc2c[n+](CC3=C(C(=O)[O-])N4C(=O)[C@@H](NC(=O)/C(=N\O[C@@H](C)C(=O)O)c5nc(N)sc5Cl)[C@H]4SC3)ccc21
0.5

Tell us which MIC value is on record for C[C@H](O/N=C(\C(=O)N[C@@H]1C(=O)N2C(C(=O)[O-])=C(C[n+]3cccc4c3ccn4CCNS(N)(=O)=O)CS[C@H]12)c1nc(N)sc1Cl)C(=O)O
0.5

Tell us which MIC value is on record for C[C@H](N)CCn1c(N)nc2c1ccc[n+]2CC1=C(C(=O)[O-])N2C(=O)[C@@H](NC(=O)/C(=N\O[C@@H](C)C(=O)O)c3nc(N)sc3Cl)[C@H]2SC1
0.5

----------
- Tested on: Enterobacter cloacae
- method: Antibacterial activity against AmpC producing Enterobacter cloacae SR-4321 by standard serial agar dilution method
- Type: functional
parameter: MIC
Please state the number and follow it with the unit.

| structureAsSmiles | assayValue |
| --- | --- |
| C[C@H](O/N=C(\C(=O)N[C@@H]1C(=O)N2C(C(=O)[O-])=C(C[n+]3cccc4c3ccn4CCNC(N)=O)CS[C@H]12)c1nc(N)sc1Cl)C(=O)O | 4 µg/mL |
| CNCCCn1c(N)cc2c1ccc[n+]2CC1=C(C(=O)[O-])N2C(=O)[C@@H](NC(=O)/C(=N\O[C@@H](C)C(=O)O)c3nc(N)sc3Cl)[C@H]2SC1 | 2 µg/mL |
| CNCCn1c(N)nc2c[n+](CC3=C(C(=O)[O-])N4C(=O)[C@@H](NC(=O)/C(=N\O[C@@H](C)C(=O)O)c5nc(N)sc5Cl)[C@H]4SC3)ccc21 | 4 µg/mL |
| CNCCCc1cc[n+](CC2=C(C(=O)[O-])N3C(=O)[C@@H](NC(=O)/C(=N\O[C@@H](C)C(=O)O)c4nc(N)sc4Cl)[C@H]3SC2)cc1 | 8 µg/mL |

Tell us which MIC value is on record for C[C@H](O/N=C(\C(=O)N[C@@H]1C(=O)N2C(C(=O)[O-])=C(C[n+]3cccc4c3ccn4CCO)CS[C@H]12)c1nc(N)sc1Cl)C(=O)O
4 µg/mL

Tell us which MIC value is on record for CC(C)(O/N=C(\C(=O)N[C@@H]1C(=O)N2C(C(=O)[O-])=C(C[n+]3ccccc3)CS[C@H]12)c1csc(N)n1)C(=O)O
64 µg/mL

Tell us which MIC value is on record for CNCCn1ncc2c1ccc[n+]2CC1=C(C(=O)[O-])N2C(=O)[C@@H](NC(=O)/C(=N\O[C@@H](C)C(=O)O)c3nc(N)sc3Cl)[C@H]2SC1
4 µg/mL

Tell us which MIC value is on record for COC(=O)NCCn1ccc2c1ccc[n+]2CC1=C(C(=O)[O-])N2C(=O)[C@@H](NC(=O)/C(=N\O[C@@H](C)C(=O)O)c3nc(N)sc3Cl)[C@H]2SC1
4 µg/mL

Tell us which MIC value is on record for C[C@H](N)CCn1c(N)nc2c1ccc[n+]2CC1=C(C(=O)[O-])N2C(=O)[C@@H](NC(=O)/C(=N\O[C@@H](C)C(=O)O)c3nc(N)sc3Cl)[C@H]2SC1
2 µg/mL

Tell us which MIC value is on record for CNCCn1ccc2c1ccc[n+]2CC1=C(C(=O)[O-])N2C(=O)[C@@H](NC(=O)/C(=N\O[C@@H](C)C(=O)O)c3nc(N)sc3Cl)[C@H]2SC1
2 µg/mL

Tell us which MIC value is on record for CC(=O)NCCn1ccc2c1ccc[n+]2CC1=C(C(=O)[O-])N2C(=O)[C@@H](NC(=O)/C(=N\O[C@@H](C)C(=O)O)c3nc(N)sc3Cl)[C@H]2SC1
4 µg/mL

Tell us which MIC value is on record for C[C@H](O/N=C(\C(=O)N[C@@H]1C(=O)N2C(C(=O)[O-])=C(C[n+]3cccc4c3ccn4CC(N)=O)CS[C@H]12)c1nc(N)sc1Cl)C(=O)O
4 µg/mL
